meta.source: ChEMBL document CHEMBL2034818

biological target: D-alanyl-D-alanine carboxypeptidase (Actinomadura sp. R39); assay: Inhibition of Actinomadura sp. R39 PBP using S2d as substrate assessed as residual activity at 1 mM incubated for 60 mins prior to substrate addition by DTNB-based spectrophotometry
For each record, write down the corresponding Activity.
One number for each entry, in %.

For orientation, consider the following solved cases.
Reported Activity, compound "COc1cccc(OC)c1C(=O)NCC(=O)O" : ____
87

Then "O=C(CCC1CCCC1)NCB(O)O" ?
71

Then "COc1cccc(C(=O)NCB(O)O)c1" ?
50

Further cases:
Reported Activity, compound "O=C(Cc1ccccc1)NCB(O)O" : ____
29
